Where do these numbers come from? They come from ChEMBL document CHEMBL3507680.

Assay: Human HepG2 cell viability assay in 384 well format
Format: toxicity, cell-based
Design: dose 125 nL, time 70.5 hour; concentration not given beside the values
Settings: HepG2 cells, read-out: Inhibition
PARAMETER: cytotoxicity at 70.5 h (%)

# MOLECULE, EXPERIMENTAL_RESULT
rows = [
    ("Cc1ccc(NC2CCN(C(=O)Cc3ccc(C)s3)CC2)nn1", -7.07),
    ("NC(=O)c1cccc(OCC(=O)NS(=O)(=O)c2ccc3c(c2)CCC3)c1", -0.191),
    ("CN(C(=O)Cc1ccc(NC(=O)NC2CCC2)cc1)c1ccccc1", 38.2),
    ("Cc1cc(N2CCCN(C(=O)Cc3csc(C)n3)CC2)ccn1", -12.4),
    ("CC(NC(=O)COc1nc(C(C)(C)C)no1)c1ccco1 (stereo not given)", -6.24),
    ("CCN1CCN(c2ncc(-c3cc(C)no3)c(-c3ccc(C)s3)n2)CC1", -27.4),
    ("COCC1CN(Cc2ccc(C)o2)Cc2cn(C)nc21 (stereo not given)", 3.14),
    ("N#Cc1ccccc1N1CCC(Nc2nccnc2C#N)CC1", 0.142),
    ("CN(CC1CCCCC1)C(=O)c1cn(C)nc1-c1cccnc1", 3.52),
    ("CC(=O)N1CCCn2nc(CNS(=O)(=O)Cc3ccccc3)cc2C1", -3.38),
    ("O=C(Cc1ccsc1)N1C[C@H]2CCC[C@@]2(COCc2ccccn2)C1", 10.5),
    ("COc1nc2ccccc2cc1C1CC(=O)Nc2n[nH]c(C3CCC3)c21 (stereo not given)", 4.02),
    ("CN(C)C1(CNc2nccc(C3CCCC3)n2)CCOCC1", -4.46),
    ("COCCOc1ccc(C(=O)N[C@@H]2CNCCC[C@H]2O)cc1", -2.53),
    ("Cc1nc(CN2CCC(CNC(=O)C3(C)CCCC3)CC2)oc1C", -4.66),
    ("CCc1noc(CN(CC(=O)N2CCCCC2)c2cccc(C)c2)n1", -3.01),
    ("CC(C)NC(=O)[C@@H]1C[C@H](N)CN1C(=O)C1(c2ccc(Cl)cc2)CCC1", -9.78),
    ("O=C(c1sccc1C1CC1)N1CCN(c2nccs2)CC1", 6.38),
    ("Cc1ccc(N2CCC3(CCN(C(N)=O)CC3)CC2)nn1", -27.1),
    ("CNC(=O)CN1CCC(c2cc(OC)cc(OC)c2)C1 (stereo not given)", -7.18),
    ("CC1=C(CCN2CC[C@@H](N3CCC(O)CC3)[C@H](O)C2)C(C)(C)CCC1", -5.02),
    ("O=C(CSC1=NS(=O)(=O)c2cc(F)ccc2N1)c1ccc(Cl)cc1", -17.3),
    ("CN(C)C(=O)N1C[C@@H]2COC[C@]2(CNS(C)(=O)=O)C1", -14.4),
    ("CC(C)C(C(=O)N(C)C)c1cccc(Cl)c1 (stereo not given)", -11),
    ("Cc1cnc2c(c1)N(C(=O)c1ccc(=O)n(C)c1)CCO2", -2.79),
    ("NCc1cccc(-c2cccnc2C(=O)NCCCN2CCOCC2)c1", -3.76),
    ("CC1CN(Cc2ccccc2)CCCN1CCS(C)(=O)=O (stereo not given)", -2.05),
    ("CNS(=O)(=O)c1csc(C(=O)N(C)Cc2sccc2C)c1", -6.58),
    ("Cc1ccoc1C(=O)N1CCCC2(CCCN2S(C)(=O)=O)C1 (stereo not given)", -3.55),
    ("O=C1CC2(CCCCC2)C(=O)N1CC(O)COCc1ccccc1F (stereo not given)", -4.1),
    ("COCCNC(=O)C1CN(Cc2ccncc2)Cc2ccnn2C1 (stereo not given)", -14.1),
    ("Cc1nc(N2CCN(C(=O)c3ccccc3)CC2)c2c(n1)c(C)nn2C", -2.09),
    ("Cc1nn(C)c(C)c1S(=O)(=O)N1CC[C@@H]2O[C@@H](C)C[C@H]2C1", -11.2),
    ("COc1cccc(CC(=O)NCCc2nnc3n2CCCCC3)c1", 18.7),
    ("CCSc1cc(C(=O)NCCNC(=O)N(C)C)ccn1", -76.6),
    ("Cc1cnn(CCNCC(O)COc2ccc(F)cc2)c1 (stereo not given)", -10.4),
    ("O=C(NCCc1cccs1)[C@]12COC[C@H]1CN(C1CCOCC1)C2", -6.34),
    ("Cc1noc(CCCC(=O)Nc2cc(C(F)(F)F)c[nH]c2=O)n1", -3.91),
    ("COc1cc(CN(C)C(=O)NCCNC(=O)C2CC2)ccc1SC", -16),
    ("Cc1noc(C)c1CN1C[C@@H](OCc2ccccn2)[C@H]2OCCC[C@H]21", -16.3),
    ("CNc1ncc(CN(C)CCN2CCCCC2)cn1", 36.6),
    ("COCC1c2nnn(C)c2CCN1C(=O)Cc1ccccn1 (stereo not given)", -3.79),
    ("Cn1c(SCC2OCCc3ccccc32)n[nH]c1=O (stereo not given)", -8.09),
    ("CC(C)NC(=O)N1CCOC2(CCNCC2)C1", -2.57),
    ("COCCc1noc(CN2C(=O)OC[C@@H]2C(C)C)n1", 2.12),
]
